Below: a set of entries, each annotated with reported survival.
tested on: Wild type; experiment: S. aureus survival, RN4220 and DeltatarO strains – OD600, teichoic acid synthesis inhibitors, primary screen (AID 463173); settings: S. aureus RN4220 wild type/DeltatarO growth, OD600, 18 h, active compounds read low, screened at 18.75 µg/mL (by protocol)
In all, about 52,000 compounds went through this assay and about 1,700 (3.3%) were called active. Shown is part of a subset that was picked to be rich in actives.
Dear colleague, please return just the value in %, with no unit written.

> print(dat)
                     structure.smiles   readout  reported.result
1  COCCn1c(Cc2ccccc2)nnc1SCC(=O)N(C)C  survival              100

survival for COc1ccc(CNCCNC(=O)c2cccs2)c(OC)c1OC ? 108

Moving on to the next compound: Cc1ccc2nc(CSc3nnc(NC(=O)C(C)C)s3)cc(=O)n2c1 -3

Same question, O=C(CSc1nc(=O)n(Cc2ccco2)c2c1CCC2)Nc1cccc(F)c1 this time 72

Then Cc1ccc(OCC(=O)Nc2nnc(SCc3cc(=O)n4cccc(C)c4n3)s2)cc1 ? 64

Repeat for the following compound: Cc1ccc2nc(CSc3nnc(NC(=O)COc4ccccc4)s3)cc(=O)n2c1 63

Would you mind doing Cc1ccc(OCC(=O)Nc2nnc(SCc3cc(=O)n4cc(C)ccc4n3)s2)cc1 as well? 1

Cited source: PubChem BioAssay AID463173
